Every entry's value here was drawn from patent US11739098B2.

assay.system: human TLR9 (Homo sapiens)
Sequence (Q9NR96 26-1032): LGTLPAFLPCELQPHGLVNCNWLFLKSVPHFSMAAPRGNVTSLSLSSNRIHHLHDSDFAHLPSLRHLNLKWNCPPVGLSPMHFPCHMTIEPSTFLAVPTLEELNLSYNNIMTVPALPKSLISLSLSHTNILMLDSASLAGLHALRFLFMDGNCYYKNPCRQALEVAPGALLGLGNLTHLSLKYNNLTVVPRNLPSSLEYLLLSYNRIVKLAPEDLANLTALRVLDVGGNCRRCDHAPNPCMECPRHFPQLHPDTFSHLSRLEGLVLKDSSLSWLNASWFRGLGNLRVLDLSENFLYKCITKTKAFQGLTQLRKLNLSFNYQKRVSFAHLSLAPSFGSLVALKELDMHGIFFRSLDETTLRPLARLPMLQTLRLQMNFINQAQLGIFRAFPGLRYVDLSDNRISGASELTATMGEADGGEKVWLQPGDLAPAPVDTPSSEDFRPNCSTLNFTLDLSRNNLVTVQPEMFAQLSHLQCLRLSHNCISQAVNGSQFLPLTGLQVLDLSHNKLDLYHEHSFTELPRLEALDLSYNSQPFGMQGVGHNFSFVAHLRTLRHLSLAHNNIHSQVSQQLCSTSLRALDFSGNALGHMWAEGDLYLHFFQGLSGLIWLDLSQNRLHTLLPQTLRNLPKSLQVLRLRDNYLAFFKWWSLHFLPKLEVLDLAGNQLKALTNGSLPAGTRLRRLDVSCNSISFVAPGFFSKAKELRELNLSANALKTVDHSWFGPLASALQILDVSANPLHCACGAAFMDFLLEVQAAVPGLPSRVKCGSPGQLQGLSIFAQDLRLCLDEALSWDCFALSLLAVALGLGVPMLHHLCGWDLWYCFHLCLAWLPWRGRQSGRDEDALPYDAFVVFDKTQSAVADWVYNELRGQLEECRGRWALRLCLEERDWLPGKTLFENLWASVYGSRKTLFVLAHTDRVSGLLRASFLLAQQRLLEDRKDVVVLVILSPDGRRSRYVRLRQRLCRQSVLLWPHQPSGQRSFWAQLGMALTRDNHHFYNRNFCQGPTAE
method: TLR9 inhibition reporter assay (HEK-Blue cells, SEAP reporter, ODN2006 stimulation)
condition.set: HEK-Blue cells overexpressing human TLR9, SEAP reporter, ODN2006 5 nM
observation.type: IC50

CNCC(=O)N1CCC(c2ccc3[nH]c(-c4cc(C(F)(F)F)c5nccn5c4)c(C(C)C)c3c2)CC1 [Example 508] | 100 to 1000 nM
CNC(=O)CN1CCC(c2ccc3[nH]c(-c4cc(C)c5nccn5c4)c(C(C)C)c3c2)CC1 [Example 397] | 100 to 1000 nM
CCc1c[nH]c2nccc(-c3[nH]c4ccc(C5CCNCC5)cc4c3C(C)C)c12 [Example 222] | 1000 to 50000 nM
Cc1c(-c2[nH]c3ccc(C4CCN(C5CCOCC5)CC4)cc3c2C(C)C)c2cccnc2n1C [Example 691] | 1000 to 50000 nM
CCc1c(-c2n[nH]c3ncccc23)[nH]c2ccc(C3CCNCC3)cc12 [Example 244] | 1000 to 50000 nM
CNCC(=O)N1CCC(c2ccc3[nH]c(-c4ccc5nc(C)cn5c4)c(CC(F)F)c3c2)CC1 [Example 550] | 100 to 1000 nM

# batch size: 2; output IC50 per entry
1. CCc1c(-c2ccnc3[nH]ccc23)[nH]c2ccc(C3CCN(C4CCN(CC(C)C)CC4)CC3)cc12 [Example 849]
2. Cc1cc(-c2[nH]c3ccc(C4CCN(C(=O)CN(C)C)CC4)cc3c2C(C)C)nn2ncnc12 [Example 454]

*A*
1. 100 to 1000 nM
2. 1000 to 50000 nM

----------
assay.system: human TLR8 (Homo sapiens, UniProt Q9NR97)
Sequence (Q9NR97 27-1041): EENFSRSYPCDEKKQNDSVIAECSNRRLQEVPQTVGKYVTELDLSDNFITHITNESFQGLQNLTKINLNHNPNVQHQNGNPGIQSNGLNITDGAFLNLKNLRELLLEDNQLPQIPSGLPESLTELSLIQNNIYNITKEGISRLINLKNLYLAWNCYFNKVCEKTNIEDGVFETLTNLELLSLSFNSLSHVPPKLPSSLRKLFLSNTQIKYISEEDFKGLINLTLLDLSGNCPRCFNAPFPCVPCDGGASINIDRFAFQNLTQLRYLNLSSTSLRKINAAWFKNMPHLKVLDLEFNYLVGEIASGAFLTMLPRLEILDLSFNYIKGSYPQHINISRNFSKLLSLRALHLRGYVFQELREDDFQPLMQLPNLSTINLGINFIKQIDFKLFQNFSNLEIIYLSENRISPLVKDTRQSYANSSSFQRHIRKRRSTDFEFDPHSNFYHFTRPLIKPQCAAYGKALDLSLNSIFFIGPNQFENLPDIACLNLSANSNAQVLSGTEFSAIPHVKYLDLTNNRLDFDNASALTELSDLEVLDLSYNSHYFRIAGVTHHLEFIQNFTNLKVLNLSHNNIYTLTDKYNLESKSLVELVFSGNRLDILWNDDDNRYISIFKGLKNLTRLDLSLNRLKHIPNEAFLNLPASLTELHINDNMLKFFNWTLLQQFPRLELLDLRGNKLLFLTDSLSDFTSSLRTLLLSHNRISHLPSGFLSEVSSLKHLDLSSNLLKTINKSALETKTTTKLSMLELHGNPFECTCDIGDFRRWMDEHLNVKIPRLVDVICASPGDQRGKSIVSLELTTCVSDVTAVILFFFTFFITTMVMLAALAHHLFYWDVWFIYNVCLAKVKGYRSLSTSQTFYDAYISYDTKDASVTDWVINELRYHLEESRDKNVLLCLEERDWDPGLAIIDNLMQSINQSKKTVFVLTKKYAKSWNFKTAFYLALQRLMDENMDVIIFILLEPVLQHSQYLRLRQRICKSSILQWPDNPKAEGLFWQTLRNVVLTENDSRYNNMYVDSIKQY
method: TLR8 inhibition reporter assay (HEK-Blue cells, SEAP reporter, R848 stimulation)
condition.set: HEK-Blue cells overexpressing human TLR8, SEAP reporter, R848 15.9 μM
observation.type: IC50

As a guide, the following entries are already answered.
CC(C)c1c(-c2ccnc3[nH]ncc23)[nH]c2cc(C(F)(F)F)c(C3CCNCC3)cc12 [Example 249] | 100 to 1000 nM
Cc1c(-c2[nH]c3ccc(C4CCNCC4)cc3c2C(C)C)nn2ncnc2c1C [Example 32] | < 100 nM
CNC(=O)CN1CCC(c2ccc3[nH]c(-c4cc(C)c5oc(=O)[nH]c5c4)c(C(C)C)c3c2)CC1 [Example 337] | 100 to 1000 nM
CC(C)c1c(-c2ccc3cnnn3c2)[nH]c2ccc(C3CCN(C4COC4)CC3)cc12 [Example 734] | 100 to 1000 nM
CC(C)c1c(-c2cnc3[nH]ccc3c2)[nH]c2ccc(C3CCN(C(=O)CN(C)C)CC3)cc12 [Example 563] | 1000 to 50000 nM

Look at each compound and report its IC50.
1. Cc1cc(-c2[nH]c3ccc(C4CCN(CCS(C)(=O)=O)CC4)cc3c2C(C)C)cn2nnnc12 [Example 789]
2. CC(C)c1c(-c2ccnc3cccnc23)[nH]c2ccc(C3CCNCC3)cc12 [Example 22]
3. CC(C)c1c(-c2ccnc3[nH]ncc23)[nH]c2cc(Cl)c(C3CCNCC3)cc12 [Example 252]
4. CCc1c(-c2ccnc3[nH]ncc23)[nH]c2ccc(C3CCN(Cc4coc(C)n4)CC3)cc12 [Example 917]
5. Cc1nnn2ccc(-c3[nH]c4ccc(C5CCN(CC(N)=O)CC5)cc4c3C(C)C)cc12 [Example 317]
6. CC(C)c1c(-c2cnc3cnccn23)[nH]c2ccc(C3CCNCC3)cc12 [Example 194]
7. CC(C)c1c(-c2ccc3ncnn3n2)[nH]c2ccc(C3CCN(CC(=O)N(C)C)CC3)cc12 [Example 278]
8. CC(C)c1c(-c2ccc3onc(N)c3c2)[nH]c2ccc(C3CCNCC3)cc12 [Example 7]

*A*
1: < 100 nM; 2: < 100 nM; 3: < 100 nM; 4: < 100 nM; 5: < 100 nM; 6: 1000 to 50000 nM; 7: < 100 nM; 8: < 100 nM

Quick one: give me IC50 for each item below, same order please.
1. Cc1cc2nc(-c3[nH]c4ccc(C5CCNCC5)cc4c3C(C)C)ccn2n1 [Example 149]
2. COC(=O)C1CC(N2CCC(c3ccc4[nH]c(-c5ccnc6[nH]ncc56)c(C(C)C)c4c3)CC2)CCN1 (stereo not shown) [Example 831]

*A*
["1000 to 50000 nM", "< 100 nM"]

*Q* Recorded IC50 for FC(F)Cc1c(-c2ccn3ccnc3c2)[nH]c2ccc(C3CCNCC3)cc12 [Example 189] with human TLR8 (Homo sapiens, UniProt Q9NR97), please?
*A* 100 to 1000 nM
